Recorded measurements of MFC, one per entry
Test system: Talaromyces marneffei
Test: Antifungal activity against Penicillium marneffei at 35 degC after 48 hrs
Format: functional
Write the number in µg/mL without appending the unit.

1) Fc1cc(-c2cc(-c3nnc(COc4ccccc4Cl)o3)c3ccccc3n2)c(Cl)cc1Cl 25
2) Fc1cc(-c2cc(-c3nnc(COc4ccc(Cl)cc4Cl)o3)c3ccccc3n2)c(Cl)cc1Cl 6.25
3) Fc1cc(-c2cc(-c3nnc(COc4ccc(Cl)cc4)o3)c3ccccc3n2)c(Cl)cc1Cl 12.5

// query I would be grateful if you could share the reported MFC for Cc1ccc(OCc2nnc(-c3cc(-c4cc(F)c(Cl)cc4Cl)nc4ccccc34)o2)cc1 .
// result 25

// query I would be grateful if you could share the reported MFC for Cc1cc(OCc2nnc(-c3cc(F)c(Cl)cc3Cl)o2)ccc1Cl .
// result 50

// query I would be grateful if you could share the reported MFC for Cc1ccc(OCc2nnc(-c3cc(F)c(Cl)cc3Cl)o2)cc1 .
// result 12.5
